Cited source: patent US20240287169A1

Biological target: T1, Human IL-2 (human, UniProt P60568 21-153)
T1 construct: Soluble analyte in the SPR experiments; also called hIL-2; recombinant human IL-2
T1 sequence (P60568 21-153 limits assumed): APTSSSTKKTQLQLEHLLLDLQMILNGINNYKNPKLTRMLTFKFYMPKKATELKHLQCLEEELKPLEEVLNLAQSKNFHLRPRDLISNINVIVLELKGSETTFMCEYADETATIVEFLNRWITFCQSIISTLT
Test: SPR, multi-cycle, antibody captured, hIL-2 analyte
RECORDED_ENDPOINT: kon
Reply with a number, then the unit it belongs to.

The recorded kon for BDG17.069 (AU-007) (antibody, human IgG1, kappa, L234A L235A, V domains shown, Human IgG1-LALA) VH: QVQLVQSGAEVKKPGSSVKVSCKASGYSITDDLIHWVRQAPGQGLEWMGWIDPEDGETNYAQKFQGRVTLTADTSTSTAYMELSSLRSEDTAVYYCARSLDSTWIYPFAYWGQGTLVTVSS VL: DIVMTQSPDSLAVSLGERATINCKSSQSLLRRGNQKNHLAWYQQKPGQPPKLLIYDASTGQSGVPDRFSGSGSGTDFTLTISSLQAEDVAVYYCLQSYITPPTFGAGTKVEIKR is 4.5e+07 M⁻¹ s⁻¹

The recorded kon for BDG17.067 (antibody, human IgG1, kappa, L234A L235A, V domains shown, Humanized IgG1 with the LALA mutation; also called BDG17.0067) VH: QVQLVQSGAEVKKPGSSVKVSCKASGYSITDYLIHWVRQAPGQGLEWMGWIDPEDGVTAYAQKFQGRVTLTADTSTSTAYMELSSLRSEDTAVYYCARSLDYDPIYPFAYWGQGTLVTVSS VL: DIVMTQSPDSLAVSLGERATINCKSSQSLLRNGNQKNYLAWYQQKPGQPPKLLIYYASTGQSGVPDRFSGSGSGTDFTLTISSLQAEDVAVYYCQQHYVTPPTFGAGTKVEIKR is 3.37e+07 M⁻¹ s⁻¹

The recorded kon for BDG17.066 (antibody, human IgG1, kappa, L234A L235A, V domains shown, Humanized IgG1 with the LALA mutation (L234A, L235A)) VH: QVQLVQSGAEVKKPGSSVKVSCKASGYSITDSLIHWVRQAPGQGLEWMGWIDPEDGEINYAQKFQGRVTLTADTSTSTAYMELSSLRSEDTAVYYCARSLDSYPIDPFAYWGQGTLVTVSS VL: DIVMTQSPDSLAVSLGERATINCKSSQSLLRNGNQQNYLAWYQQKPGQPPKLLIYYASTGQSGVPDRFSGSGSGTDFTLTISSLQAEDVAVYYCQQHYVTPPTFGAGTKVEIKR is 1.52e+07 M⁻¹ s⁻¹

The recorded kon for BDG17.038 (antibody, V domains shown, Humanized IgG1) VH: QVQLVQSGAEVKKPGSSVKVSCKASGYSITDSLIHWVRQAPGQGLEWMGWIDPEDGEINYAQKFQGRVTLTADTSTSTAYMELSSLRSEDTAVYYCARSLDSYPIDPFAYWGQGTLVTVSS VL: DIVMTQSPDSLAVSLGERATINCKSSQSLLRNGNQQNYLAWYQQKPGQPPKLLIYYASTGQSGVPDRFSGSGSGTDFTLTISSLQAEDVAVYYCQQHYVTPPTFGAGTKVEIK is 1.41e+07 M⁻¹ s⁻¹
